# Test system: Amaranthus retoflexus (AMARE)
# TEST DESCRIPTION: Herbicidal glasshouse test, pre-emergence
# Type: in vivo
# RECORDED CONDITIONS: Amaranthus retroflexus, pre-emergence, 312 h, PRE Application, evaluated after 13 days, read-out: damage to plant (100=total damage to plant; 0=no damage to plant)
Consider the following molecules and their measured pest or weed control at 250 g/ha readings.

- GIVEN SMILES: "O=C1CCCC(=O)C1C(=O)c1cc2cc(F)cnc2n(CCOc2ccccc2)c1=O"
  TARGET OR TEST SYSTEM: "Amaranthus retoflexus (AMARE)"
  pest or weed control at 250 g/ha [%]: 30
- GIVEN SMILES: "Cc1cc(C)c2cc(C(=O)C3C(=O)CCCC3=O)c(=O)n(C)c2n1"
  TARGET OR TEST SYSTEM: "Amaranthus retoflexus (AMARE)"
  pest or weed control at 250 g/ha [%]: 0
- GIVEN SMILES: "COCCn1c(=O)c(C(=O)C2C(=O)CCCC2=O)cc2cc(F)c(C)nc21"
  TARGET OR TEST SYSTEM: "Amaranthus retoflexus (AMARE)"
  pest or weed control at 250 g/ha [%]: 100
- GIVEN SMILES: "Cn1c(=O)c(C(=O)C2C(=O)CCCC2=O)cc2cccnc21"
  TARGET OR TEST SYSTEM: "Amaranthus retoflexus (AMARE)"
  pest or weed control at 250 g/ha [%]: 100
- GIVEN SMILES: "Cn1c(=O)c(C(=O)C2C(=O)CCCC2=O)cc2ccc(Br)cc21"
  TARGET OR TEST SYSTEM: "Amaranthus retoflexus (AMARE)"
  pest or weed control at 250 g/ha [%]: 80
- GIVEN SMILES: "COCn1c(=O)c(C(=O)C2C(=O)CCCC2=O)cc2cc(F)c(C)nc21"
  TARGET OR TEST SYSTEM: "Amaranthus retoflexus (AMARE)"
  pest or weed control at 250 g/ha [%]: 100
- GIVEN SMILES: "Cc1ccc2cc(C(=O)C3C(=O)CCCC3=O)c(=O)n(C)c2n1"
  TARGET OR TEST SYSTEM: "Amaranthus retoflexus (AMARE)"
  pest or weed control at 250 g/ha [%]: 40
- GIVEN SMILES: "COCCn1c(=O)c(C(=O)C2C(=O)CCCC2=O)cc2cc(F)cnc21"
  TARGET OR TEST SYSTEM: "Amaranthus retoflexus (AMARE)"
  pest or weed control at 250 g/ha [%]: 100
- GIVEN SMILES: "COCn1c(=O)c(C(=O)C2C(=O)CCCC2=O)cc2cc(F)cnc21"
  TARGET OR TEST SYSTEM: "Amaranthus retoflexus (AMARE)"
  pest or weed control at 250 g/ha [%]: 100
- GIVEN SMILES: "CCCn1c(=O)c(C(=O)C2C(=O)CCCC2=O)cc2cc(F)cnc21"
  TARGET OR TEST SYSTEM: "Amaranthus retoflexus (AMARE)"
  pest or weed control at 250 g/ha [%]: 90
- GIVEN SMILES: "CCn1c(=O)c(C(=O)C2C(=O)CCCC2=O)cc2cc(F)cnc21"
  TARGET OR TEST SYSTEM: "Amaranthus retoflexus (AMARE)"
  pest or weed control at 250 g/ha [%]: 100
- GIVEN SMILES: "O=C1CCCC(=O)C1C(=O)c1cc2cc(F)cnc2n(-c2ccccc2[N+](=O)[O-])c1=O"
  TARGET OR TEST SYSTEM: "Amaranthus retoflexus (AMARE)"
  pest or weed control at 250 g/ha [%]: 100
